Hey, just so you know, these numbers are from paper PMC10397247.

- target_or_test_system: T1, 4H2253-AA
- T1 chain: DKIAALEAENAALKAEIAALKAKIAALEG
- measurement_notes: two-hybrid library CCmax;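 further: natural log of median RNA to DNA barcode read ratio; higher means stronger binding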
- measurement_parameters: mean of both orientations
measured_property: interaction score

Take a look at these entries with their results.
binder | measured_property | observed_result
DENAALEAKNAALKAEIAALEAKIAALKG [4H1478-AA] | interaction score | -0.889
DENAALKAENAALKAKIAALEAKIAALEG [4H1765-AA] | interaction score | -1.14
DENAALKAKIAALEAENAALKAKIAALEG [4H1821-AA] | interaction score | -0.989
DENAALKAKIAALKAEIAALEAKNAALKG [4H1864-AA] | interaction score | -1.42

I: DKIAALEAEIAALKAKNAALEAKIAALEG [4H2165-AA]
II: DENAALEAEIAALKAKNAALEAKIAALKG [4H1142-AA]
QUERY: Given the listed records, identify the one among I and II with higher interaction score. Please respond with the label that marks your chosen entry.
RESULT: I
(I: -1.02, II: -1.49)
